tested on: K4 kissing-loop RNA reporter; assay: apparent KD of K4 kissing-loop reporter; higher = weaker reporter binding; conditions: Eterna round: R107; input ligand: tryptophan 2.4 mM;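 also: bound reporter read as fluorescence of individual clusters on recovered sequencing chips by microscopy, with normalized cluster intensities fitted with a binding model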
Hi, to clarify the labels: y covers apparent KD of K4 kissing-loop reporter from 0.2 µM upward, n covers anything below 0.2 µM.

item_sequence="AACUGGGUUCGUGAUACCAGCUCACACAUGAGUGAUGUUGAUGUAGUGGGCAAAAUGUGGAGCCCUUGGCAGCACUGUGACCACG [XTheo-B3]" category_label=y
item_sequence=UGAUAGGACAGAAGGAGCGGUAGUGAUGUUGCCAAAAGUAUAAGGUGUCAAAAGACACCCUACCAGGUAGGUCGCUGUCCUAUCU category_label=y
item_sequence="AGACUACCACACUGUCAAUAGACAGUGAGCUAGGAUAUGCUGAUAAGCAGAAGGAGUGAUGUUCCGAGGUAGUCAAUAAAAUAAU [FmnAX 13 G29+G66]" category_label=y
item_sequence="GGAUAGGAUAGAGGAUAUGGCUUACGCAGAAAUAACUUGUUGUGUUUAUCCAUAGGGAGUGAUGUUCCAGAAGGCUGUCCUAUCG [MatMod 18 - Jieux - Exclusion - FMN B]" category_label=n
item_sequence="GGUGACAACCAGAGGUGAUGUAUAGAAUCGCGAGGACCGGUACGGCCGCCACUCGUGAAGAGAAAGGAGUGAUGUUCCGUAAUGG [Kazoo C6]" category_label=n
item_sequence="AAGGGCGGAACAACCUCGCCGGAUAGAGAUACCAGCCCAGCAAUGGGCCCUUGGCAGCUCACUGACCUCAGUGAUGUUGAGGUUC [Laar]" category_label=y

----------
tested on: MS2 coat protein; test: apparent KD of MS2 coat protein; designed switch direction (-1 OFF switch, 1 ON switch): 1; higher = weaker reporter binding; settings: input ligand: FMN 200 uM
In this section, each of the sequences is paired with its reported apparent KD of MS2 coat protein.
property_measured: apparent KD of MS2 coat protein (nM)

item_sequence="GAGUGGCAGUUAGGAUAUACAGUGAUAAUGAUAGUAGAAGGAACUGACAUGAGGAUCACCCAUGUAGGACUAAUCCAGAGAGAG [Parity 32 - Jieux - Same State NG 1] (Eterna round: R96, puzzle: Same State NG 1)" u=nM val=92.3
item_sequence="GGACGUCAACUCAACAAUUAAACAUGAGGAUCACCCAUGUCACAGGAUAUGGAUCCUAAUUGGAUCCAGAAGGGUGAGACGUCC [Fiskers NG3ss - 42] (Eterna round: R96, puzzle: Same State NG 3)" u=nM val=95.9
item_sequence="AGUCCAGCCUGAGCUGGACAAAAGCAUGUACAUGAGGAUCACCCAUGUUCAUGUACAAGCUUUUUGCUCGUCUUGCC [salish99_208a_r3_107x] (Eterna round: R96, puzzle: Sensor for hsa-mir-208a)" u=nM val=774
item_sequence="GUCAGCGAUUGAGGAUAUCACGUCGAUUAGACGUGAGAAGGCGAUCAUAACAUGAGGAUCACCCAUGUAUUACAUGAAGCUGAC [SSNG1/5-A2] (Eterna round: R96, puzzle: Same State NG 1)" u=nM val=19.6
item_sequence="GAGGGCGAAAGCGACAUGAGGAUCACCCAUGUCCUCGGAGGGCAGGAUAUCCGGCAAAAGCCGAAGGAGAAGGGUCGAAAAGAA [AK SSNG3-V2-38.1] (Eterna round: R96, puzzle: Same State NG 3)" u=nM val=66.4
item_sequence="GCUCGGACGAUGACCCACAUGAGGAUCACCCAUGUGCGUGGGCAGGAUAUCUAGAUUAAGGAUGUAGAGAAGGGUCGACCGAGC [SameState NG3 #30] (Eterna round: R96, puzzle: Same State NG 3)" u=nM val=415
item_sequence="GUUACAUGAGGAUCACCCAUGUAUGUGUGGGAGUAAGUGUCUUAGGAUAUCUAUGAUUUAAUUAAAGAGAAGGAAGAUUGUUGU [JMF's solution 83] (Eterna round: R96, puzzle: Same State NG 3)" u=nM val=154
item_sequence="UAGGGACAUGAGGAUCACCCAUGUGCCUCAUAUGGAGAAACACAGGAUAUGCUGAGGGAAACAUGGCAGAAGGGUGAAGAGAGG [Default title] (Eterna round: R96, puzzle: Same State NG 3)" u=nM val=31.9
item_sequence="AGGCUCAGAGCAGGAUAUAUGUGGUCACAUGAGGAUCACCCAUGUCUCGAGCUUCGGCUCGAGGCAUAGAAGGGCUCUGAGCCA [SSNG2/5-B1] (Eterna round: R96, puzzle: Same State NG 2)" u=nM val=963
item_sequence="UGUACCUGCACAGGAUAUCAUGCGAAAAUUGCGUGAGAAGGGUGAAUACUGUCUUUCUAAGAGUACAUGAGGAUCACCCAUGUA [SameState NG1 #61] (Eterna round: R96, puzzle: Same State NG 1)" u=nM val=156
item_sequence="AGCACUUCAGAAGGAUAUGAGAUGCUAAGCAUCUUAGAAGGUCUGCCGUAAAGAAACGUCCACAUGAGGAUCACCCAUGUUGCA [Eternabot solution 28] (Eterna round: R96, puzzle: Same State NG 1)" u=nM val=20.9
item_sequence="CCCUCAUGCAGGCUAACACGCUUGUUUUAACAUGAGGAUCACCCAUGUACGUCGCCGUUUCGUGCGGGACGCGCAGA [Anuscear] (Eterna round: R96, puzzle: Sensor for hsa-mir-208a)" u=nM val=363
item_sequence="GUAGCAUACCGAGGAUAUUCAUAUAAUAAAUACAUGAGGAUCACCCAUGUUAGGCGAAAGCCUUGGGAGAAGGCGGAAUGCUAC [Xeonanis - 20 Mod58] (Eterna round: R96, puzzle: Same State NG 2)" u=nM val=14.4
item_sequence="UUCCCAUCGGGAGGAUAUGGUUCCUUAUUGGUUCUAGAAGGUCCAACAUGAGGAUCACCCAUGUGGGAGUGGUCUAAUGACCUC [SS NG10LRO05] (Eterna round: R96, puzzle: Same State NG 1)" u=nM val=889
item_sequence="UUCUCAUUUACAUGAGGAUCACCCAUGUUUUUUUGUCAGAAAUAGGAUAUAGGUCUCUCGUUUUACUAGAAGGAUUUCUUUAUU [JR_SSNG3_Sub088] (Eterna round: R96, puzzle: Same State NG 3)" u=nM val=146
item_sequence="GGUGCCAAUAAAGCCUACAUGAGGAUCACCCAUGUAUGUAGGCAGGAUAUCGUAUGCAAAGCAUACGAGAAGGGCCGAGGCACC [Mat - Same State NG 3 - JL Mod - D56] (Eterna round: R96, puzzle: Same State NG 3)" u=nM val=18.7
item_sequence="GUUAGGAAUCUAGCUGACAUGAGGAUCACCCAUGUUAGUGGGAAGGAUAUGGUACAGAAACUGUACCAGAAGGUCUUACUGUCU [MOD Omei's SS(NG) 3 AV9] (Eterna round: R96, puzzle: Same State NG 3)" u=nM val=23.8
item_sequence="GCUAGUAAAAUUGCUAACAUGAGGAUCACCCAUGUAUGUUGGCAGGAUAUCGUUUGCAAAGCAAACGAGAAGGGCUAAACUAGC [Mat - Same State NG 3 - JL Mod - D15] (Eterna round: R96, puzzle: Same State NG 3)" u=nM val=30.2
